Assay: Compound 122 saliva concentrations in healthy human subjects after oral administration (HPLC-MS/MS)
Assay type: in vivo
Conditions: human, saliva, po, 30 mg, PM; Day 16; 30 mg b.i.d. oral; 24 hr; read-out: Mean saliva concentration, PM, Mean ± SD
Parameter: concentration at 24 h (ng/mL)
The figure you give is taken to be in ng/mL; do not add the unit.

Q: What value of concentration at 24 h has been recorded for this entry: COc1ccc(OC(F)(F)F)cc1CNC1CCCNC1c1ccccc1 (stereo not shown)
A: 21.5

---

Assay: Compound 122 saliva concentrations in healthy human subjects after oral administration (HPLC-MS/MS)
Format: in vivo
Conditions: human, saliva, po, 10 mg, EM; Day 6; 10 mg b.i.d. oral; 24 hr; read-out: Mean saliva concentration, EM, Mean ± SD
Parameter: concentration at 24 h (ng/mL)
The figure you give is taken to be in ng/mL; do not add the unit.

Q: What value of concentration at 24 h has been recorded for this entry: COc1ccc(OC(F)(F)F)cc1CNC1CCCNC1c1ccccc1 (stereo not shown)
A: 0.418

---

Assay: Compound 122 saliva concentrations in healthy human subjects after oral administration (HPLC-MS/MS)
Type: in vivo
Conditions: human, saliva, po, 30 mg, EM; Day 11; 30 mg q.d. oral; 8 hr; read-out: Mean saliva concentration, EM, Mean ± SD
Parameter: concentration at 8 h (ng/mL)
The figure you give is taken to be in ng/mL; do not add the unit.

Q: What value of concentration at 8 h has been recorded for this entry: COc1ccc(OC(F)(F)F)cc1CNC1CCCNC1c1ccccc1 (stereo not shown)
A: 3.18

---

Experiment: Compound 122 saliva concentrations in healthy human subjects after oral administration (HPLC-MS/MS)
Format: in vivo
Details: human, saliva, po, 30 mg, PM; Day 16; 30 mg b.i.d. oral; 8 hr; read-out: Mean saliva concentration, PM, Mean ± SD
Parameter: concentration at 8 h

Q: What value of concentration at 8 h has been recorded for this entry: COc1ccc(OC(F)(F)F)cc1CNC1CCCNC1c1ccccc1 (stereo not shown) [Compound 122]
A: 0.0133 µg/mL

---

Assay: Compound 122 saliva concentrations in healthy human subjects after oral administration (HPLC-MS/MS)
Format: in vivo
Conditions: human, saliva, po, 100 mg, EM + paroxetine; Day 21; 100 mg q.d. oral; 0 hr; read-out: Mean saliva concentration, EM + paroxetine, Mean ± SD
Parameter: concentration at 0 h

Q: What value of concentration at 0 h has been recorded for this entry: COc1ccc(OC(F)(F)F)cc1CNC1CCCNC1c1ccccc1 (stereo not shown)
A: 12.2 ng/mL

---

Experiment: Compound 122 saliva concentrations in healthy human subjects after oral administration (HPLC-MS/MS)
Format: in vivo
Settings: human, saliva, po, 30 mg, EM; Day 11; 30 mg q.d. oral; 4 hr; read-out: Mean saliva concentration, EM, Mean ± SD
Parameter: concentration at 4 h (ng/mL)
The figure you give is taken to be in ng/mL; do not add the unit.

Q: What value of concentration at 4 h has been recorded for this entry: COc1ccc(OC(F)(F)F)cc1CNC1CCCNC1c1ccccc1 (stereo not shown)
A: 4.03

---

Test: Compound 122 saliva concentrations in healthy human subjects after oral administration (HPLC-MS/MS)
Assay type: in vivo
Details: human, saliva, po, 10 mg, EM + paroxetine; Day 1; 10 mg q.d. oral; 24 hr; read-out: Mean saliva concentration, EM + paroxetine, Mean ± SD
Parameter: concentration at 24 h

Q: What value of concentration at 24 h has been recorded for this entry: COc1ccc(OC(F)(F)F)cc1CNC1CCCNC1c1ccccc1 (stereo not shown)
A: 0.192 ng/mL

Each recorded value in this set is attributed to patent US20030211636A1.
